conditions: in ethanol, 318.2 K
readout.name: solubility (mole fraction)
Output: the number by itself.

Lookup: What value of solubility (mole fraction) has been recorded for this entry: COc1c(C)c2c(c(O)c1C/C=C(\C)CCC(=O)OCCN1CCOCC1)C(=O)OC2
Found: 0.00906

----------
details: in ethylene glycol, 298.2 K
readout.name: solubility (mole fraction)
Output: the number by itself.

Lookup: What value of solubility (mole fraction) has been recorded for this entry: COc1c(C)c2c(c(O)c1C/C=C(\C)CCC(=O)OCCN1CCOCC1)C(=O)OC2
Found: 0.000715

----------
settings: in propylene glycol, 303.2 K
readout.name: solubility (mole fraction)

Lookup: What value of solubility (mole fraction) has been recorded for this entry: COc1c(C)c2c(c(O)c1C/C=C(\C)CCC(=O)OCCN1CCOCC1)C(=O)OC2
Found: 0.00126
